- Test system: BDF1 mice, P388 leukemia ip, median survival T/C
- protocol-summary: NCI In Vivo Anticancer Drug Screen. Data for tumor model P388 Leukemia (intraperitoneal) in B6D2F1 (BDF1) mice
- particulars: endpoint: median survival time; dose: 200.0 mg/kg/injection; schedule: Q01DX009 (ip); vehicle: Klucel (hydroxypropylcellulose) (HPC); higher = longer survival
- Procedure: The antitumor activity of compounds was measured in mice bearing transplantable tumors. Survival or tumor size were measured and the results are expressed as the measurement made in the treated group (T) divided by the measurement made in the vehicle treated control group (C). The tumor model used in this assay is P388 Leukemia (intraperitoneal) in B6D2F1 (BDF1) mice
Inconclusive results and toxic doses are left out.
metric: T/C

molecule=O=[N+]([O-])c1ccc(SNc2ccc(O)cc2)cc1[N+](=O)[O-] metric=T/C result="90 % of control"
molecule="Cn1cnc([N+](=O)[O-])c1Sc1ncnc2c1ncn2C1OC(CO)C(O)C1O (stereo not given)" metric=T/C result="122 % of control"
molecule=Cc1ccc(NC(=O)c2ccc(Cl)cc2)cc1 metric=T/C result="109 % of control"
molecule="COC1=CC(=O)CC(C)C12Oc1c(Cl)c(OC)cc(OC)c1C2=O (stereo not given)" metric=T/C result="109 % of control"
molecule=CCC(=O)O[C@H]1CC[C@H]2[C@@H]3CC[C@H]4CC(=O)[C@H](C)C[C@]4(C)[C@H]3CC[C@]12C metric=T/C result="95 % of control"
molecule=COc1cc(/C=C(/C)[N+](=O)[O-])ccc1O metric=T/C result="114 % of control"
molecule="Cc1ccc(C2NC(=O)c3ccccc3N2)c(C)c1 (stereo not given)" metric=T/C result="110 % of control"
molecule="NC(COC(c1ccccc1)(c1ccccc1)c1ccccc1)C(=O)O (stereo not given)" metric=T/C result="90 % of control"
molecule=NC(=O)C1(C(N)=O)CCC1 metric=T/C result="110 % of control"
molecule=C=C(C)[C@@H]1CC[C@]2(C)CC[C@]3(C)[C@H](CC[C@@H]4[C@@]5(C)CC[C@H](O)C(C)(C)[C@@H]5CC[C@]43C)[C@@H]12 metric=T/C result="105 % of control"

* * *

T/C by entry:
- System: BDF1 mice, P388 leukemia ip, median survival T/C
- protocol-summary: NCI In Vivo Anticancer Drug Screen. Data for tumor model P388 Leukemia (intraperitoneal) in B6D2F1 (BDF1) mice
- particulars: endpoint: median survival time; dose: 50.0 mg/kg/injection; schedule: Q04DX003 (ip); vehicle: Klucel (hydroxypropylcellulose) (HPC); higher = longer survival
Inconclusive results and toxic doses are left out.
metric: T/C

compound=OC1(C#CC2(O)CCCCC2)CCCCC1 metric=T/C result="109 % of control"
compound="CN(/N=C/C(O)C(O)C(O)CO)c1ccccc1 (stereo not given)" metric=T/C result="105 % of control"
compound=CN1CCC(CN2c3ccccc3Sc3ccccc32)CC1 metric=T/C result="110 % of control"
compound=Nc1c(Br)cc(Br)c(C(=O)O)c1Br metric=T/C result="100 % of control"
compound=C[C@@H]1C[C@H]2C(=CC1=O)CC[C@@H]1[C@@H]2CC[C@@]2(C)[C@H]1CC[C@]2(C)O metric=T/C result="91 % of control"

FYI, the data here is from PubChem BioAssay AID328.
